In this section, each of the compounds is paired with its reported inhibition at 100 µM.
target: thromboxane synthetase (Rattus norvegicus); construct: The platelets were isolated by centrifuging the PRP for 10 minutes at 1060 xg; endogenous in cells; host or cells: washed platelets from arterial blood of Okamoto-Aoki spontaneously hypertensive rats (Taconic Farms), 19 to 24 weeks old; assay: Inhibition of thromboxane (TXA2) formation, determined as TXB2 formed by washed SHR platelets (direct RIA); type: cell-based, Okamoto-Aoki spontaneously hypertensive rats (SHR); conditions: Dose 10^-4 M, 10 minutes at 37° C., pH 7.4
Sequence (P49430 whole entry): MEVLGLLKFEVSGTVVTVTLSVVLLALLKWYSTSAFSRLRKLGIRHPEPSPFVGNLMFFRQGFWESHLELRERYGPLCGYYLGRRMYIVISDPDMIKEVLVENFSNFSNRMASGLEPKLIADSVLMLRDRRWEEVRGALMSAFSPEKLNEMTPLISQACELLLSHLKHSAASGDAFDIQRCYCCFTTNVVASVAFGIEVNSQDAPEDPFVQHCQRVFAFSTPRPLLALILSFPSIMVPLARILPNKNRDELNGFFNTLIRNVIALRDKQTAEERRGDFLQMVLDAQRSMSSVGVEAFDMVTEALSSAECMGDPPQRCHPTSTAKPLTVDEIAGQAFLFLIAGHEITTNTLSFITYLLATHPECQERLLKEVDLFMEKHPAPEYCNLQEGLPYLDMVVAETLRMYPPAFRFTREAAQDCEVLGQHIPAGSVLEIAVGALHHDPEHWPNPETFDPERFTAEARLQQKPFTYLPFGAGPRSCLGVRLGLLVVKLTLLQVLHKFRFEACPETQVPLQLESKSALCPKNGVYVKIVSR
Property label: inhibition at 100 µM (%)

• COc1ccc2[nH]c(C(=O)NCCCn3ccnc3)cc2c1 = 96
• COc1ccc2[nH]c(C(=O)NCCCn3ccnc3C)cc2c1 = 49
• Cc1nccn1CCCNC(=O)c1cc2ccccc2n1C = 56
• Cc1cn(CCCNC(=O)c2cc3cc(Cl)ccc3[nH]2)cn1 = 100

This collection of values is drawn from patent US4619941A.
